This collection of values is drawn from ChEMBL document CHEMBL5724696.

System: U2OS
protocol_details: Here: values are normalized to the positive (DMSO; basel flux = defined as 100% suppression) and negative (250nM Torin1; mTOR inhibitor; maximal inducer of autophagy defined as 0% suppression) control compounds and represented as % of ER-phagy suppression. […] The impact of autophagy induction on cells is complex and depends on the affected target. […] Of note, treatment concentrations may be sub-optimal for specific compounds, leading to false negative annotations.
Format: functional, Homo sapiens
test_conditions: Compound Concentration 1 uM, Timepoint 60 hours, Culturing Media DMEM, 1 % Penicillin/Streptomycin, 10% Fetal bovin serum Add-On: blasticidin, Screening Media Control DMEM, 10% Fetal bovin serum Add-On: 1 µg/ml Doxycyclin, Screening Media Samples DMEM, 10% Fetal bovin serum Add-On: 1 µg/ml Doxycyclin 250nM Torin1

[
  {
    "line_notation": "O=C(O)CSc1ncnc2cc(-c3cc4ccccc4s3)sc12",
    "ER-phagy suppression": "-4.092%"
  },
  {
    "line_notation": "CC1=C(C#N)[C@@H](c2ccc3[nH]nc(C)c3c2)C(C#N)=C(c2ccc(Cl)cc2)N1",
    "ER-phagy suppression": "-34.9366%"
  },
  {
    "line_notation": "Cc1ccc(-c2cnc([C@@]3(O)CC[C@H](C(=O)O)C(C)(C)C3)s2)cc1Nc1cccc(C(F)(F)F)n1",
    "ER-phagy suppression": "-6.238%"
  }
]
